Measurement record for Thyroid hormone receptor alpha (Homo sapiens, UniProt P10827); quantity recorded: pIC50.
Field pIC50 (float): negative decimal logarithm of the concentration in molar.

Find the recorded pIC50 belonging to "CC(C)c1cc(Oc2c(Br)cc(CC(=O)N[C@H](C)C(=O)O)cc2Br)ccc1O" and report it. 7.08

Would you mind doing "CC(C)c1cc(Oc2c(Br)cc(CC(=O)N[C@@H](C(=O)O)C(C)C)cc2Br)ccc1O" as well? 8.01

Would you mind doing "CC(C)c1cc(Oc2c(Br)cc(CC(=O)N[C@H](C(=O)O)c3ccccc3)cc2Br)ccc1O" as well? 8.12

Would you mind doing "CC(C)c1cc(Oc2c(Br)cc(CC(=O)N[C@@H](CC(=O)O)C(=O)O)cc2Br)ccc1O" as well? 6.34

Would you mind doing "CC(C)c1cc(Oc2c(Br)cc(CC(=O)N[C@@H](C(=O)O)c3ccccc3)cc2Br)ccc1O" as well? 8.26

Would you mind doing "Cc1cc(Oc2c(Br)cc(CC(=O)N[C@H](C(=O)O)C(C)C)cc2Br)cc(C(C)C)c1O" as well? 5.82

Would you mind doing "CC(C)c1cc(Oc2c(Br)cc(CC(=O)N[C@H](CC(=O)O)C(=O)O)cc2Br)ccc1O" as well? 6.77

----------
system: CHO-K1; settings: Homo sapiens
Description: Activity against TRAF-alpha-1 expressed in CHOK1 cells by alkaline phosphatase reporter gene assay
Task for the reader: assign each of the following molecules its reported Activity.
Number only, in %; omit the unit.

Find the recorded Activity belonging to "Cc1cc(Oc2c(Br)cc(CC(=O)N[C@H](C(=O)O)C(C)C)cc2Br)cc(C(C)C)c1O" and report it. 13

Would you mind doing "CC(C)c1cc(Oc2c(Br)cc(CC(=O)N[C@H](C(=O)O)C(C)C)cc2Br)cc(Cl)c1O" as well? 21

Would you mind doing "CC(C)c1cc(Oc2c(Br)cc(CC(=O)N[C@@H](C(=O)O)c3ccccc3)cc2Br)ccc1O" as well? 65

Would you mind doing "CC(C)c1cc(Oc2c(Br)cc(CC(=O)NCC(=O)O)cc2Br)ccc1O" as well? 75

Would you mind doing "CC(C)c1cc(Oc2c(Br)cc(CC(=O)N[C@@H](C)C(=O)O)cc2Br)ccc1O" as well? 81

----------
system: CHO-K1; settings: Homo sapiens
Label rule, in plain words: Activity of 80% and up is 1.0, under 80% is 0.0.

Check this compound for Activity at or above 80%: "CC(C)c1cc(Oc2c(Br)cc(CC(=O)N[C@@H](CC(=O)O)C(=O)O)cc2Br)ccc1O" 0.0

Would you mind doing "CC(C)c1cc(Oc2c(Br)cc(CC(=O)N[C@H](CC(=O)O)C(=O)O)cc2Br)ccc1O" as well? 0.0

Would you mind doing "CC(C)c1cc(Oc2c(Br)cc(CC(=O)N[C@@H](C(=O)O)C(C)C)cc2Br)ccc1O" as well? 1.0

Would you mind doing "CC(C)c1cc(Oc2c(Br)cc(CC(=O)N[C@H](C)C(=O)O)cc2Br)ccc1O" as well? 1.0

----------
tested on: CHO-K1; conditions: Homo sapiens
Description: Activity against TRAFbeta expressed in CHOK1 cells by alkaline phosphatse reporter gene assay
property: Activity (%)
Number only, in %; omit the unit.

Find the recorded Activity belonging to "CC(C)c1cc(Oc2c(Br)cc(CC(=O)N[C@H](C)C(=O)O)cc2Br)ccc1O" and report it. 100

Would you mind doing "CC(C)c1cc(Oc2c(Br)cc(CC(=O)N[C@@H](C(=O)O)c3ccccc3)cc2Br)ccc1O" as well? 85

Would you mind doing "CC(C)c1cc(Oc2c(Br)cc(CC(=O)N[C@@H](C)C(=O)O)cc2Br)ccc1O" as well? 92

Would you mind doing "CC(C)c1cc(Oc2c(Br)cc(CC(=O)N[C@@H](CC(=O)O)C(=O)O)cc2Br)ccc1O" as well? 84

Would you mind doing "CC(C)c1cc(Oc2c(Br)cc(CC(=O)N[C@H](C(=O)O)C(C)C)cc2Br)ccc1O" as well? 92

Would you mind doing "CC(C)c1cc(Oc2c(Br)cc(CC(=O)NCC(=O)O)cc2Br)ccc1O" as well? 85

Would you mind doing "CC(C)c1cc(Oc2c(Br)cc(CC(=O)N[C@H](C(=O)O)C(C)C)cc2Br)cc(Cl)c1O" as well? 31

Would you mind doing "CC(C)c1cc(Oc2c(Br)cc(CC(=O)N[C@H](CC(=O)O)C(=O)O)cc2Br)ccc1O" as well? 88

Would you mind doing "Cc1cc(Oc2c(Br)cc(CC(=O)N[C@H](C(=O)O)C(C)C)cc2Br)cc(C(C)C)c1O" as well? 27

Would you mind doing "CC(C)c1cc(Oc2c(Br)cc(CC(=O)N[C@@H](C(=O)O)C(C)C)cc2Br)ccc1O" as well? 100

Would you mind doing "CC(C)c1cc(Oc2c(Br)cc(CC(=O)N[C@H](C(=O)O)C(C)C)cc2Br)cc(F)c1O" as well? 88

----------
Molecular target: Thyroid hormone receptor beta (Homo sapiens, UniProt P10828)
Sequence (P10828 whole entry): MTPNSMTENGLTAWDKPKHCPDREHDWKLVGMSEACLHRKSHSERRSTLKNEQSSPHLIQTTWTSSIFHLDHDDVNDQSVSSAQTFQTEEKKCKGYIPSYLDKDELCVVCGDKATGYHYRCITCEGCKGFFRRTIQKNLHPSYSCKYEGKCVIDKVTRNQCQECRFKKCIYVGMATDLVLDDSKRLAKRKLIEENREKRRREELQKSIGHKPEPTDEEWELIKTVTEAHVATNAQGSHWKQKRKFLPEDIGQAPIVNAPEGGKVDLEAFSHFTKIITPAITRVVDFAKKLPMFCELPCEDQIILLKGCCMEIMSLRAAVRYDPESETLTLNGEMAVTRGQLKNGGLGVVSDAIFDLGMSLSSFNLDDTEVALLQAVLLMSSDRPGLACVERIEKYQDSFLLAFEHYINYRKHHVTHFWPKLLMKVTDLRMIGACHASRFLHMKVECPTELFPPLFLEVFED
property: IC50 (nM)
Number only, in nM; omit the unit.

Find the recorded IC50 belonging to "CC(C)c1cc(Oc2c(Br)cc(CC(=O)NCC(=O)O)cc2Br)ccc1O" and report it. 2.7

Would you mind doing "CC(C)c1cc(Oc2c(Br)cc(CC(=O)N[C@H](C(=O)O)c3ccccc3)cc2Br)ccc1O" as well? 0.78

Would you mind doing "CC(C)c1cc(Oc2c(Br)cc(CC(=O)N[C@@H](C(=O)O)c3ccccc3)cc2Br)ccc1O" as well? 0.6

Would you mind doing "CC(C)c1cc(Oc2c(Br)cc(CC(=O)N[C@H](C(=O)O)C(C)C)cc2Br)ccc1O" as well? 0.27

Would you mind doing "CC(C)c1cc(Oc2c(Br)cc(CC(=O)N[C@H](C(=O)O)C(C)C)cc2Br)cc(Cl)c1O" as well? 1400

Would you mind doing "CC(C)c1cc(Oc2c(Br)cc(CC(=O)N[C@H](C(=O)O)C(C)C)cc2Br)cc(F)c1O" as well? 12

----------
Task for the reader: assign each of the following compounds its reported Ratio IC50.
organism: Homo sapiens; experiment: Selectivity ratio of IC50 for thyroid hormone receptor alpha-1 to IC50 for thyroid hormone receptor beta-1
Would you mind answering with just the numeric figure?

Find the recorded Ratio IC50 belonging to "CC(C)c1cc(Oc2c(Br)cc(CC(=O)N[C@H](C)C(=O)O)cc2Br)ccc1O" and report it. 8.3

Would you mind doing "CC(C)c1cc(Oc2c(Br)cc(CC(=O)N[C@@H](C(=O)O)C(C)C)cc2Br)ccc1O" as well? 8.2

Would you mind doing "CC(C)c1cc(Oc2c(Br)cc(CC(=O)N[C@H](C(=O)O)c3ccccc3)cc2Br)ccc1O" as well? 5.7

Would you mind doing "CC(C)c1cc(Oc2c(Br)cc(CC(=O)N[C@H](C(=O)O)C(C)C)cc2Br)ccc1O" as well? 9.4

Would you mind doing "CC(C)c1cc(Oc2c(Br)cc(CC(=O)N[C@H](C(=O)O)C(C)C)cc2Br)cc(F)c1O" as well? 4.3

Would you mind doing "CC(C)c1cc(Oc2c(Br)cc(CC(=O)N[C@@H](C(=O)O)c3ccccc3)cc2Br)ccc1O" as well? 6

Would you mind doing "CC(C)c1cc(Oc2c(Br)cc(CC(=O)N[C@H](CC(=O)O)C(=O)O)cc2Br)ccc1O" as well? 3.8

Would you mind doing "CC(C)c1cc(Oc2c(Br)cc(CC(=O)N[C@@H](CC(=O)O)C(=O)O)cc2Br)ccc1O" as well? 0.9

Would you mind doing "CC(C)c1cc(Oc2c(Br)cc(CC(=O)NCC(=O)O)cc2Br)ccc1O" as well? 5.9

Would you mind doing "CC(C)c1cc(Oc2c(Br)cc(CC(=O)N[C@H](C(=O)O)C(C)C)cc2Br)cc(Cl)c1O" as well? 0.29

Would you mind doing "CC(C)c1cc(Oc2c(Br)cc(CC(=O)N[C@@H](C)C(=O)O)cc2Br)ccc1O" as well? 4.5

Would you mind doing "Cc1cc(Oc2c(Br)cc(CC(=O)N[C@H](C(=O)O)C(C)C)cc2Br)cc(C(C)C)c1O" as well? 0.34
